- system tested: T1, His-tagged PCSK9Δhelix (human, UniProt Q8NBP7 31-152; Q8NBP7 168-692)
- T1 construct: Human PCSK9 M1-Q692 with an engineered TEV site, cut by TEV protease; new N-terminus of the catalytic domain is S-A168; also called His-PCSK9Δhelix; not shown: His tag
- T1 sequence (Q8NBP7 31-152, stated change not applied, chain 1 of 2): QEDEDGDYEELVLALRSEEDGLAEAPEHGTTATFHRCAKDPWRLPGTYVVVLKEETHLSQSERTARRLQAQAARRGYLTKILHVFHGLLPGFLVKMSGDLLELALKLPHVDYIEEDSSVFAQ
- T1 sequence (Q8NBP7 other isoform, or with tags, fused parts or gaps mutant, chain 2 of 2): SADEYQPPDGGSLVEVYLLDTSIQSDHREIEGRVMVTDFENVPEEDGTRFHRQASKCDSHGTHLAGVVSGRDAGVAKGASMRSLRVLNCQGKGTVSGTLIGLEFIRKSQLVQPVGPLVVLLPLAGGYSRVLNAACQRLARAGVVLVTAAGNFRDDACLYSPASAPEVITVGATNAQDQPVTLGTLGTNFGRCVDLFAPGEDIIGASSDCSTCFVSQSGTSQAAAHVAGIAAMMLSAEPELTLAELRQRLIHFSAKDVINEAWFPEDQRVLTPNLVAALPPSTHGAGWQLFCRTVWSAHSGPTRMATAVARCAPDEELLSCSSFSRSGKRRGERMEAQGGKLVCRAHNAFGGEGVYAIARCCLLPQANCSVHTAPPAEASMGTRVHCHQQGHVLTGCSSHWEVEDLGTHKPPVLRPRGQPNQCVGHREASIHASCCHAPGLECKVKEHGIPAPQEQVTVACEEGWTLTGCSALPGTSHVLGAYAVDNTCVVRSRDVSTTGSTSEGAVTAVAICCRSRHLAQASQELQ
- experimental details: TR-FRET competition (PCSK9Δhelix/Ab20 assay); competitor Ab20
Bridge positions count the residues as written; N and C are the ends.

binder: Ac-CALPWNLQRIGLPC-NH2 (disulfide 1-14; SMILES CC[C@H](C)[C@@H]1NC(=O)[C@H](CCCNC(=N)N)NC(=O)[C@H](CCC(N)=O)NC(=O)[C@H](CC(C)C)NC(=O)[C@H](CC(N)=O)NC(=O)[C@H](Cc2c[nH]c3ccccc23)NC(=O)[C@@H]2CCCN2C(=O)[C@H](CC(C)C)NC(=O)[C@H](C)NC(=O)[C@@H](NC(C)=O)CSSC[C@@H](C(N)=O)NC(=O)[C@@H]2CCCN2C(=O)[C@H](CC(C)C)NC(=O)CNC1=O) [Compound 79 (Ac-CALPWNLQRIGLPC-NH2)]
unit abbrev: µM
IC50: 1.53

binder: Ac-FCLWNLARIGSQCWF-NH2 (disulfide 2-13; SMILES CC[C@H](C)[C@@H]1NC(=O)[C@H](CCCNC(=N)N)NC(=O)[C@H](C)NC(=O)[C@H](CC(C)C)NC(=O)[C@H](CC(N)=O)NC(=O)[C@H](Cc2c[nH]c3ccccc23)NC(=O)[C@H](CC(C)C)NC(=O)[C@@H](NC(=O)[C@H](Cc2ccccc2)NC(C)=O)CSSC[C@@H](C(=O)N[C@@H](Cc2c[nH]c3ccccc23)C(=O)N[C@@H](Cc2ccccc2)C(N)=O)NC(=O)[C@H](CCC(N)=O)NC(=O)[C@H](CO)NC(=O)CNC1=O) [Compound 88 (Ac-FCLWNLARIGSQCWF-NH2)]
unit abbrev: µM
IC50: 7.46
